These data points were gathered from PubChem BioAssay (NCI).

- System: SNB-75 CNS
- measurement description: NCI-60 one-dose screen, 48 h (100 = growth as untreated, 0 = no growth, -100 = all killed)
- run parameters: 10 µM
About 83,000 compounds went through this panel and 20% of them were active in at least one assay; those are over-represented in the sample as a whole.
quantity name: growth (%)
API: value field is a number in %; no unit string.

Below: 4 compounds and their reported growth.
compound: CC[N+](C)(CC)CCO
growth [%]: 108
//
compound: CC(=O)Nc1cccc(NC(C)=O)n1
growth [%]: 106
//
compound: O=[N+]([O-])c1ccc(O)c(S(=O)(=O)O)c1
growth [%]: 98.6
//
compound: N#Cc1ccc(NC(=O)Nc2cccc(C#N)c2)cc1
growth [%]: 97.8

Now look at this one.
Which growth is reported for this compound? CCOc1ccc(I)cc1
91.4
